molecular target: UniProt:Q12772; experiment: In vitro assay SREBP-2: PathHunter U2OS SREBP-2 Nuclear Translocation Cell Line, U18666A-stimulated; assay type: cell-based; conditions: PathHunter U2OS SREBP-2 nuclear translocation cells, U18666A 10 μM, overnight (16 hours)
pIC50: −log10 of the molar value.
measurement-kind: pIC50

Would you kindly share the measured pIC50 for C[C@H](CCC(=O)N1CCN(C(=O)C(C)(C)O)C[C@@H]1C)[C@H]1CC[C@H]2[C@@H]3CC=C4C[C@@H](O)CC[C@]4(C)[C@H]3CC[C@]12C [Example 653] ?
> 6.60

Any idea what its pIC50 is? The molecule is C[C@H](CCC(=O)N1CCN(C(C)(C)C)CC1)[C@H]1CC[C@H]2[C@@H]3CC=C4C[C@@H](O)CC[C@]4(C)[C@H]3CC[C@]12C [Example 557]
6.00 to 6.60

Consider the molecule shown here: CC1CCN(C(=O)CC[C@@H](C)[C@H]2CC[C@H]3[C@@H]4C[C@@H](O)[C@H]5C[C@@H](O)CC[C@]5(C)[C@H]4CC[C@]23C)CC1 [Example C2] What is its recorded pIC50?
< 5.00

###

Hi there, I'd appreciate the recorded pIC50 for every entry that follows.
target: SREBP-2 (Homo sapiens (Human), UniProt Q12772); experiment: In vitro assay SREBP-2: PathHunter U2OS SREBP-2 Nuclear Translocation Cell Line, U18666A-stimulated; assay type: cell-based; conditions: PathHunter U2OS SREBP-2 nuclear translocation cells, U18666A 10 μM, overnight (16 hours)
pIC50: −log10 of the molar value.

What pIC50 appears in the records for this compound with SREBP-2 (Homo sapiens (Human), UniProt Q12772)? "C[C@@H](CCC(=O)N[C@H]1CC[C@@H](C(=O)N(C)C)CC1)[C@H]1CC[C@H]2[C@@H]3CC=C4C[C@@H](O)CC[C@]4(C)[C@H]3CC[C@]12C"
> 6.60

Field: pIC50 (SREBP-2 (Homo sapiens (Human), UniProt Q12772)). Entry: "C[C@H](CCC(=O)N1CCC(N2CCOCC2=O)CC1)[C@H]1CC[C@H]2[C@@H]3CC=C4C[C@@H](O)CC[C@]4(C)[C@H]3CC[C@]12C"
> 6.60

Hello, I am looking for reported pIC50 with SREBP-2 (Homo sapiens (Human), UniProt Q12772) for "C[C@H](CCC(=O)N1CCN(C(=O)N2CCC2)CC1)[C@H]1CC[C@H]2[C@@H]3CC=C4C[C@@H](O)CC[C@]4(C)[C@H]3CC[C@]12C" . Could you help?
> 6.60

Provide the documented pIC50 with SREBP-2 (Homo sapiens (Human), UniProt Q12772) as the system for "C[C@H](CCC(=O)N1CCN(C(=O)OC2CC2)C[C@@H]1C)[C@H]1CC[C@H]2[C@@H]3CC=C4C[C@@H](O)CC[C@]4(C)[C@H]3CC[C@]12C"
> 6.60

Form entry - test system: SREBP-2 (Homo sapiens (Human), UniProt Q12772); read-out: pIC50; compound: "C[C@H](CCC(=O)N1CCN(C(=O)N(C)C)C[C@@H]1C)[C@H]1CC[C@H]2[C@@H]3CC=C4C[C@@H](O)CC[C@]4(C)[C@H]3CC[C@]12C"
> 6.60

Requested read-out pIC50, target or system SREBP-2 (Homo sapiens (Human), UniProt Q12772), entry "C[C@H](CCc1ncccc1C(C)(C)O)[C@H]1CC[C@H]2[C@@H]3CC=C4C[C@@H](O)CC[C@]4(C)[C@H]3CC[C@]12C"
> 6.60

Short answer please: pIC50, SREBP-2 (Homo sapiens (Human), UniProt Q12772), entry "C[C@H](CCC(=O)N(C)C)[C@H]1CC[C@H]2[C@@H]3CC=C4CC(F)(F)CC[C@]4(C)[C@H]3CC[C@]12C"
< 5.00

Query the reported pIC50 for SREBP-2 (Homo sapiens (Human), UniProt Q12772); item: "C[C@H](CCC(=O)N1CC[C@@H](CO)O1)[C@H]1CC[C@H]2[C@@H]3CC=C4C[C@@H](O)CC[C@]4(C)[C@H]3CC[C@]12C"
6.00 to 6.60

Field: pIC50 (SREBP-2 (Homo sapiens (Human), UniProt Q12772)). Entry: "C[C@H](CCC(=O)N1CCC[C@@H](O)C1)[C@H]1CC[C@H]2[C@@H]3CC=C4C[C@@H](O)CC[C@]4(C)[C@H]3CC[C@]12C"
> 6.60

Please tell me: pIC50 of "C[C@H](CCC(=O)N1CCC(O)(CO)CC1)[C@H]1CC[C@H]2[C@@H]3CC=C4C[C@@H](O)CC[C@]4(C)[C@H]3CC[C@]12C" , system SREBP-2 (Homo sapiens (Human), UniProt Q12772)?
> 6.60

So what pIC50 did C[C@H](CCC(=O)N1CCCC(c2ccncc2)C1)[C@H]1CC[C@H]2[C@@H]3CC=C4C[C@@H](O)CC[C@]4(C)[C@H]3CC[C@]12C (stereo partly drawn) get with SREBP-2 (Homo sapiens (Human), UniProt Q12772)?
> 6.60

SREBP-2 (Homo sapiens (Human), UniProt Q12772) / pIC50 / "C[C@H](OC(=O)C(=O)N1CCCCC1)[C@H]1CC[C@H]2[C@@H]3CC=C4C[C@@H](O)CC[C@]4(C)[C@H]3CC[C@]12C" : value?
> 6.60

Form field - read-out: pIC50; system: SREBP-2 (Homo sapiens (Human), UniProt Q12772); submitted item: "C[C@H](CCC(=O)N1CCN(C(=O)N(C)CC2CC2)CC1)[C@H]1CC[C@H]2[C@@H]3CC=C4C[C@@H](O)CC[C@]4(C)[C@H]3CC[C@]12C"
> 6.60

I'm curious: which pIC50 was measured for "C[C@H](CCC(=O)N1CCN(C(=O)NC2CC2)CC1)[C@H]1CC[C@H]2[C@@H]3CC=C4C[C@@H](O)CC[C@]4(C)[C@H]3CC[C@]12C" tested on SREBP-2 (Homo sapiens (Human), UniProt Q12772)?
> 6.60

Request body: readout pIC50, system SREBP-2 (Homo sapiens (Human), UniProt Q12772), query "COc1ccnc(N2CCN(C(=O)CC[C@@H](C)[C@H]3CC[C@H]4[C@@H]5CC=C6C[C@@H](O)CC[C@]6(C)[C@H]5CC[C@]34C)CC2)c1" . Return the value.
> 6.60

// fetch SREBP-2 (Homo sapiens (Human), UniProt Q12772) pIC50 for "C[C@H](CCC(=O)N1CCC(C(O)(C(F)(F)F)C(F)(F)F)CC1)[C@H]1CC[C@H]2[C@@H]3CC=C4C[C@@H](O)CC[C@]4(C)[C@H]3CC[C@]12C"
> 6.60

Request: pIC50, test system SREBP-2 (Homo sapiens (Human), UniProt Q12772), entry "C[C@H](CC[C@@](O)(C1CC1)C(F)(F)F)[C@H]1CC[C@H]2[C@@H]3CC=C4C[C@@H](O)CC[C@]4(C)[C@H]3CC[C@]12C"
6.00 to 6.60

Enter reported pIC50 observed with SREBP-2 (Homo sapiens (Human), UniProt Q12772) for "COc1cncnc1N1CCN(C(=O)CC[C@@H](C)[C@H]2CC[C@H]3[C@@H]4CC=C5C[C@@H](O)CC[C@]5(C)[C@H]4CC[C@]23C)[C@@H](C)C1"
> 6.60

Any idea what pIC50 came out for "CNC(=O)c1ncccc1O[C@@H](C)[C@H]1CC[C@H]2[C@@H]3CC=C4C[C@@H](O)CC[C@]4(C)[C@H]3CC[C@]12C" on SREBP-2 (Homo sapiens (Human), UniProt Q12772)?
6.00 to 6.60

Given the entry "C[C@H](OCC(=O)N1CCC(C)(CO)CC1)[C@H]1CC[C@H]2[C@@H]3CC=C4C[C@@H](O)CC[C@]4(C)[C@H]3CC[C@]12C" , what pIC50 was observed with SREBP-2 (Homo sapiens (Human), UniProt Q12772)?
6.00 to 6.60

Reported pIC50 for SREBP-2 (Homo sapiens (Human), UniProt Q12772), given "Cc1cc(N2CCN(C(=O)CC[C@@H](C)[C@H]3CC[C@H]4[C@@H]5CC=C6C[C@@H](O)CC[C@]6(C)[C@H]5CC[C@]34C)CC2)ncn1" ?
> 6.60

###

target: UniProtKB Q12772; test: In vitro assay SREBP-2: PathHunter U2OS SREBP-2 Nuclear Translocation Cell Line, U18666A-stimulated; type: cell-based; settings: PathHunter U2OS SREBP-2 nuclear translocation cells, U18666A 10 μM, overnight (16 hours)
pIC50: −log10 of the molar value.
measurement-kind: pIC50

Hello, I am looking for reported pIC50 with UniProtKB Q12772 for "COc1cncnc1N1CCN(C(=O)CC[C@@H](C)[C@H]2CC[C@H]3[C@@H]4CC=C5C[C@@H](O)CC[C@]5(C)[C@H]4CC[C@]23C)CC1" . Could you help?
> 6.60

Lab request: please report pIC50 under test system UniProtKB Q12772 for "COC(=O)N1CCN(C(=O)OC[C@@H](C)[C@H]2CC[C@H]3[C@@H]4CC=C5C[C@@H](O)CC[C@]5(C)[C@H]4CC[C@]23C)CC1"
> 6.60

pIC50 of "Cc1ccc(CC[C@@H](C)[C@H]2CC[C@H]3[C@@H]4CC=C5C[C@@H](O)CC[C@]5(C)[C@H]4CC[C@]23C)nc1" on UniProtKB Q12772?
6.00 to 6.60

Request: pIC50, test system UniProtKB Q12772, entry Cc1ccncc1O[C@@H](C)[C@H]1CC[C@H]2[C@@H]3CC=C4C[C@@H](O)CC[C@]4(C)[C@H]3CC[C@]12C [Example 271]
6.00 to 6.60

Could you share what pIC50 was measured for "CC(=O)NC1CN(C(=O)CC[C@@H](C)[C@H]2CC[C@H]3[C@@H]4CC=C5C[C@@H](O)CC[C@]5(C)[C@H]4CC[C@]23C)C1" , tested on UniProtKB Q12772?
6.00 to 6.60

Observed pIC50 on UniProtKB Q12772 for "C[C@H](CCC(=O)N1CCC(C)(CNS(C)(=O)=O)CC1)[C@H]1CC[C@H]2[C@@H]3CC=C4C[C@@H](O)CC[C@]4(C)[C@H]3CC[C@]12C" , please.
> 6.60
